Listed here: items and their measured pEC50.
TESTED_TARGET: Transient receptor potential cation channel subfamily V member 1 (Homo sapiens, UniProt Q8NER1)
Sequence (Q8NER1 whole entry): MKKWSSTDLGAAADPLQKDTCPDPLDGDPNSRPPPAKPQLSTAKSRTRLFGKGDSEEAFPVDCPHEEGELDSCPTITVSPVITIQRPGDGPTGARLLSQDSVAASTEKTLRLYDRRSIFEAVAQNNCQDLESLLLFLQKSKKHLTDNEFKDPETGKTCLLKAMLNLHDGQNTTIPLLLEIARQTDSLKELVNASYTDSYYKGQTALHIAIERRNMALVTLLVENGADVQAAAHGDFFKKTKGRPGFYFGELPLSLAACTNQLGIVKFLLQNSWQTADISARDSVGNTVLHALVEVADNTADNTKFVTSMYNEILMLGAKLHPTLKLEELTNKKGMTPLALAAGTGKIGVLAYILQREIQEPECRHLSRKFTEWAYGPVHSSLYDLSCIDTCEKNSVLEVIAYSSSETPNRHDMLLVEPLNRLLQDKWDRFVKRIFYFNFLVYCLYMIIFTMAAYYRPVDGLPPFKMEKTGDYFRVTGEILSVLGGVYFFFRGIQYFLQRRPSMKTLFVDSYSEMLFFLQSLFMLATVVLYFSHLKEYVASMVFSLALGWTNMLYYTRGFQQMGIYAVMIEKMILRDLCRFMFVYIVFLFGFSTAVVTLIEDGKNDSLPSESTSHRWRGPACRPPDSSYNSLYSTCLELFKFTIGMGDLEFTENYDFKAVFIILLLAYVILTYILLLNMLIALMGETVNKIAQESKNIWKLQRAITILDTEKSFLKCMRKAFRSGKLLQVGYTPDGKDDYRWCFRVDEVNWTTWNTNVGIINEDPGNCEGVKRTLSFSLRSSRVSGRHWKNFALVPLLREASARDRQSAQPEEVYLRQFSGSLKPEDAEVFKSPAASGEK
PROTOCOL_DESCRIPTION: Agonist activity at TRPV1 (unknown origin) expressed in human SH-SY5Y cells assessed as increase in calcium influx after 25 mins by Fluo-4 NW dye-based fluorescence assay
pEC50: −log10 of the molar value.

| CHEMICAL_STRUCTURE | pEC50 |
| --- | --- |
| CC(C)=CCC/C(C)=C/CC/C(C)=C/CC/C=C(\C)CC/C=C(\C)CCC(=O)OCC(=O)NCc1ccc(O)c(O)c1 | 7.40 |
| CCCCCCCC/C=C\CCCCCCCC(=O)OCC(=O)NCc1ccc(O)c(OC)c1 | 6.49 |
| CCCCC/C=C\C/C=C\C/C=C\C/C=C\CCCC(=O)OCC(=O)NCc1ccc(O)c(OC)c1 | 6.35 |
| CCCCCCCCCCCCCCC(=O)OCC(=O)NCc1ccc(O)c(OC)c1 | 6.48 |
| COc1cc(CNC(=O)COC(=O)CC/C(C)=C/CC/C(C)=C/CC/C=C(\C)CC/C=C(\C)CCC=C(C)C)ccc1O | 7.05 |
